Recorded Particle-size distribution (PDI), one value per entry.
Assay: Particle size and PDI of lipid nanoparticles by dynamic light scattering
Assay type: physicochemical
Conditions: lipid nanoparticles with luciferase mRNA; ionizable lipid/cholesterol/DSPC/DMG-PEG2000 50/38.5/10/1.5 mol%
Method: […] The particle size and particle size dispersity index (PDI) of the prepared lipid nanoparticles were measured using a Zetasizer Pro (purchased from Malvern Instruments Ltd) and a DynaPro NanoStar (purchased from Wyatt) dynamic light scattering instrument. […] This parameter was measured by the method of Quant-it™ RiboGreen RNA Assay (purchased from Invitrogen). […]
Quick one: just the number, no unit, thanks!

Some solved entries appear below for comparison.
• CCCCCCCCCOC(=O)C(C)(C)CCCCCCN(CCO)CCCCCCOC(=O)OCCCC(CCCCC)CCCCC [42a] = 0.17
• CCCCCCCCCC(=O)OCC1(CCCCCN(CCO)CCCCCCCC(=O)OC(CCCCCCCCC)CCCCCCCCC)CC1 [53b] = 0.42

Value lookup for Particle-size distribution (PDI); key = `CCCCCCCCCC(=O)OCC(C)(C)CCCCCN(CCO)CCCCCCCC(=O)OC(CCCCCCCC)CCCCCCCC`
0.031

Give its Particle-size distribution (PDI) value. Item: CCCCCCCCCC(=O)OCC(C)(C)CCCCCN(CCO)CCCCCCCC(=O)OCC(CCCCCCC)CCCCCCC [13b]
0.018

====

Experiment: Particle size and PDI of lipid nanoparticles by dynamic light scattering
Type: physicochemical
Details: lipid nanoparticles with luciferase mRNA; ionizable lipid/cholesterol/DSPC/DMG-PEG2000 50/38.5/10/1.5 mol%
Method: […] The particle size and particle size dispersity index (PDI) of the prepared lipid nanoparticles were measured using a Zetasizer Pro (purchased from Malvern Instruments Ltd) and a DynaPro NanoStar (purchased from Wyatt) dynamic light scattering instrument. […] This parameter was measured by the method of Quant-it™ RiboGreen RNA Assay (purchased from Invitrogen). […]
REPORTED_PROPERTY: Particle-size distribution (PDI)

Solved entries:
- CCCCCCCCCCC(=O)OCCCC(C)(C)CCCN(CCCO)CCCCCCC(=O)OCC(CCCCCCCCC)CCCCCCCCC [114b]: 0.13
- CCCCCCCCCCC(=O)OCCCC(C)(C)CCCN(CCO)CCCCCCCC(=O)OCCC(CCCCCCC)CCCCCCC [80b]: 0.18
- CCCCCCCCCCOC(=O)CCCCC(C)(C)CCN(CCO)CCCCCCCC(=O)OCC(CCCCCCCC)CCCCCCCC [65a]: 0.16
- CCCCCCCCCC(=O)OCCCC(C)(C)CCCN(CCCO)CCCCCCC(=O)OCC(CCCCCCCC)CCCCCCCC [82b]: 0.16
- CCCCCCCCCC(=O)OCC1(CCCCCN(CCO)CCCCCCCC(=O)OC(CCCCCCCC)CCCCCCCC)CC1 [14b]: 0.013

Entry CCCCCCC#CCOC(=O)CCCCCCCN(CCO)CCCCCCC(C)(C)C(=O)OC(CCCCCCCC)CCCCCCCC [54a] : reported Particle-size distribution (PDI) = ?
0.14

Which Particle-size distribution (PDI) value is on record for CCCCCCCCCOC(=O)CCCCC(C)(C)CCN(CCO)CCCCCCCC(=O)OCCC(CCCCCC)CCCCCC [27a] ?
0.016

Quick one: Particle-size distribution (PDI) of CCCCCCCCCC(=O)OCCCC(C)(C)CCCN(CCO)CCCCCCCC(=O)OCCC(CCCCCC)CCCCCC [71b] ?
0.17

====

// values below are reported Encapsulation efficiency (%)
Assay: Encapsulation efficiency of lipid nanoparticles (Quant-it RiboGreen RNA Assay)
Assay type: physicochemical
Conditions: lipid nanoparticles with luciferase mRNA
Just the number please, in %, no unit attached.

Please review the following examples before continuing.
• CCCCCCCCCCC(=O)OCCCC(C)(C)CCCN(CCCO)CCCCCCCC(=O)OCCC(CCCCCCC)CCCCCCC [81b] = 92.87
• CCCCCCCCCC(=O)OCCC(C)(C)CCCCN(CCCCO)CCCCCCC(=O)OCCC(CCCCCCC)CCCCCCC [104b] = 91.51
• CCCCCCCCCOC(=O)CCCCCCCN(CCO)CCCCCCC1(C(=O)OC(CCCCCCCC)CCCCCCCC)CC1 = 87.22
• CCCCCCCCCC(=O)OCC1(CCCCCN(CCO)CCCCCCCC(=O)OCCC(CCCCCC)CCCCCC)CC1 [23b] = 93.14

If you can, please state the reported Encapsulation efficiency (%) value of CCCCCCCCCOC(=O)CCCCC(C)(C)CCN(CCO)CCCCCCOC(=O)OCC(CCCCCCC)CCCCCCC [47a] .
93.23

Form field: reported Encapsulation efficiency (%) of CCCCCCCCCOC(=O)OCCCCCCCN(CCCCO)CCCCCC(C)(C)COC(=O)CC(CCCCCCC)CCCCCCC [32b]
95.31

Bench note: what Encapsulation efficiency (%) did CCCCCCCCCCCOC(=O)CCCCCN(CCO)CCCCCCC1(C(=O)OC(CCCCCCCC)CCCCCCCC)CC1 [13a] show?
92.96

Any idea what Encapsulation efficiency (%) was measured for CCCCCCCCCCOC(=O)CCCCC(C)(C)CCN(CCO)CCCCCCCC(=O)OCC(CCCCCCCC)CCCCCCCC [65a] ?
95.93

====

Assay: Encapsulation efficiency of lipid nanoparticles (Quant-it RiboGreen RNA Assay)
Assay type: physicochemical
Conditions: lipid nanoparticles with luciferase mRNA
Here the recorded Encapsulation efficiency (%) is given for each entry.
Field: numeric (%). Do not append units.

Some solved entries appear below for comparison.
• CCCCCCCCCC(=O)OCCC(C)(C)CCCCN(CCO)CCCCCCC(=O)OCCC(CCCCCCC)CCCCCCC [102b] = 93.92
• CCCCCCCCCC(=O)OCC(C)(C)CCCCCN(CCCCCCCC(=O)OC(CCCCCCCC)CCCCCCCC)C(=O)SCCCCN(C)C [38b] = 98.29
• CCCCCCCCCCOC(=O)CCCCCCCN(CCO)CCCCCC(C)(C)COC(=O)C(CCCCCCCC)CCCCCCCC [18b] = 89.34
• CCCCCCCCCCC(=O)OCC(C)(C)CCCCCN(CCCO)CCCCCCCCC(=O)OCC(CCCCCCC)CCCCCCC [79b] = 92.85
• CCCCCCCCCC(=O)OCCCC(C)(C)CCCN(CCCO)CCCCCCC(=O)OCCCC(CCCCCC)CCCCCC [83b] = 95.70

Form field: reported Encapsulation efficiency (%) of CCCCCCCCCCC(=O)OCC(C)(C)CCCCCN(CCCCCCOC(=O)OC(CCCCCCCCC)CCCCCCCCC)C(=O)SCCCCN(C)C [46b]
97.78

GET /values?readout=Encapsulation efficiency (%)&item= CCCCCCCCCCC(=O)OCCC(C)(C)CCCCN(CCCCO)CCCCCCCC(=O)OC(CCCCCCCCC)CCCCCCCCC [55b]
94.65

Return reported Encapsulation efficiency (%); argument: CCCCCCCCCCCOC(=O)CCCCCN(CCO)CCCCCCC(C)(C)C(=O)OCCC(CCCCCC)CCCCCC [15a]
90.77

Return reported Encapsulation efficiency (%); argument: CCCCCCCCCCC(=O)OCC(C)(C)CCCCCN(CCCCO)CCCCCCCCC(=O)OCC(CCCCCCC)CCCCCCC [89b]
84.88

Returns the measured Encapsulation efficiency (%) for the input compound. Input: CCCCCCCCOC(=O)OCC(C)(C)CCCCCN(CCCCCCOC(=O)CC(CCCCCCCC)CCCCCCCC)C(=O)SCCCCN(C)C [50b]
98.50

Give the measured Encapsulation efficiency (%) of CCCCCCCCCCCCOC(=O)CCCCCN(CCO)CCCCCCC(C)(C)C(=O)OC(CCCCCCCCC)CCCCCCCCC [24a] .
88.89

What value of measured Encapsulation efficiency (%) is listed for CCCCCCCCCC(=O)OCCC(C)(C)CCCCCN(CCCCO)CCCCCCC(=O)OCCC(CCCCCCCC)CCCCCCCC [109b] ?
93.00

Which Encapsulation efficiency (%) value belongs to CCCCCCCCCCCOC(=O)CCCCCN(CCO)CCCCCC(C)(C)CC(=O)OC(CCCCCCCC)CCCCCCCC [19a] ?
87.90

GET /values?readout=Encapsulation efficiency (%)&item= CCCCCCCCCOC(=O)CC(C)(C)CCCCCN(CCO)CCCCCCOC(=O)OCC(CCCCCCC)CCCCCCC [45a]
94.63

Look up Encapsulation efficiency (%): CCCCCCCCCC(=O)OCCC(C)(C)CCCCCN(CCO)CCCCCCC(=O)OCC(CCCCCCCCC)CCCCCCCCC [106b]
94.89

====

Listed compounds paired with reported Encapsulation efficiency (%)
Assay: Encapsulation efficiency of lipid nanoparticles (Quant-it RiboGreen RNA Assay)
Assay type: physicochemical
Settings: lipid nanoparticles with luciferase mRNA
Enter your answer as a number in %; do not include the unit.

These recorded examples may help you get a feel for the data.
- CCCCCCCCCC(=O)OCCCC(C)(C)CCCN(CCCO)CCCCCCCCC(=O)OCC(CCCCCC)CCCCCC [112b]: 69.74
- CCCCCCCCCCCSC(=O)CCCCCN(CCO)CCCCCCC(C)(C)C(=O)OC(CCCCCCCC)CCCCCCCC [53a]: 90.96
- CCCCCCCCCC(CCCCCCCCC)OC(=O)CCCCCCCN(CCO)CCCCCC(C)(C)COC(=O)CCCC(CCCCCC)CCCCCC [66b]: 97.18

Consider the compound shown here: CCCCC/C=C\C/C=C\CCCCCCCCC(CCCCCCCC/C=C\C/C=C\CCCCC)OC(=O)CCCN(C)C [MC3, DLin-MC3-DMA, reference compound] What is its recorded Encapsulation efficiency (%)?
95.62

Report Encapsulation efficiency (%) for CCCCCCCCCC(=O)OCCCC(C)(C)CCCN(CCCCO)CCCCCCC(=O)OCC(CCCCCCCC)CCCCCCCC [84b] please.
89.17

I am curious: what Encapsulation efficiency (%) value has been reported for CCCCCCCCCCCOC(=O)CCCCCN(CCCO)CCCCCCC(C)(C)C(=O)OC(CCCCCCCC)CCCCCCCC [11a] ?
89.36

Can you share its Encapsulation efficiency (%)? I mean this compound: CCCCCCCCCCCOC(=O)OCCCCN(CCO)CCCCCCC(C)(C)C(=O)OCCC(CCCCCC)CCCCCC [38a]
94.51

What measured Encapsulation efficiency (%) goes with CCCCCCCCCCC(=O)OCC(C)(C)CCCCCN(CCO)CCCCCCCC(=O)OC(CCCCCCCCC)CCCCCCCCC [16b] ?
89.09

Consider the compound CCCCCCCCCOC(=O)CCCCC(C)(C)CCN(CCO)CCCCCCCC(=O)OC(CCCCCCCC)CCCCCCCC [25a] and give its measured Encapsulation efficiency (%).
95.62

// Encapsulation efficiency (%) lookup, key: CCCCCCCCCCOC(=O)CCCCC(C)(C)CCN(CCCCCCCC(=O)OC(CCCCCCCCC)CCCCCCCCC)C(=O)SCCCCN(C)C [60a]
97.44

// query Encapsulation efficiency (%) value for entry CCCCCCCCCC(=O)OCC(C)(C)CCCCCN(CCO)CCCCCCCC(=O)OCCC(CCCCCC)CCCCCC [10b]
72.72

Recorded Encapsulation efficiency (%) for CCCCCCCCCOC(=O)OCCCCCCN(CCCCO)CCCCCCC(C)(C)C(=O)OCCCC(CCCCC)CCCCC [39a] , please?
93.59

I'd like to know its Encapsulation efficiency (%). The compound in question is CCCCCCCCCCC(=O)OCC(C)(C)CCCCCN(CCCCO)CCCCCCCC(=O)OC(CCCCCCCCC)CCCCCCCCC [17b]
87.72

For the compound CCCCCCCCCCOC(=O)OCCCCCCN(CCO)CCCCCCC(C)(C)C(=O)OC(CCCCCCCCC)CCCCCCCCC [48a] , what Encapsulation efficiency (%) is on record?
96.13

What measured Encapsulation efficiency (%) goes with CCCCCCCCCC(=O)OCC1(CCCCCN(CCCO)CCCCCCCC(=O)OCC(CCCCCCC)CCCCCCC)CC1 [58b] ?
92.88
